Known SCC-25 (tongue, squamous cell carcinoma) cell viability (% of control) of a selection of compounds
System: SCC-25 (tongue, squamous cell carcinoma) cells
ASSAY INFO: Cell viability assay, CellTiter-Glo (Example 21)
Type: cell-based, human
PROTOCOL CONDITIONS: 3.7 nM, 72 h treatment
OBSERVED PROPERTY: SCC-25 (tongue, squamous cell carcinoma) cell viability (% of control)

# COMPOUND, ASSAY VALUE
rows = [
    ("[N-]=[N+]=Nc1cccc(CN2CCC3=C(C2)C(=O)N(Cc2ccc(Cl)cc2)C2=NCCN23)c1 [I/133]", "102.3 ± 4.2 % of control"),
    ("O=C1C2=C(CCN(Cc3cccc(F)c3)C2)N2CCN=C2N1Cc1ccc(F)cc1 [I/6, reference compound]", "101.8 ± 4.3 % of control"),
    ("O=C1C2=C(CCN(Cc3ccccc3)C2)N2CCN=C2N1Cc1ccc(C(F)(F)F)cc1 [I/1, reference compound]", "108.5 ± 8.6 % of control"),
    ("[N-]=[N+]=Nc1cccc(CN2CCC3=C(C2)C(=O)N(Cc2ccc(C(F)(F)F)cc2)C2=NCCN23)c1 [I/111]", "98.3 ± 4.0 % of control"),
    ("[N-]=[N+]=Nc1ccc(CN2C(=O)C3=C(CCN(Cc4cc(F)cc(F)c4)C3)N3CCN=C23)cc1 [I/107]", "97.3 ± 3.8 % of control"),
]

----------
Tested on: Detroit 562 (pharynx, carcinoma) cells
ASSAY INFO: Cell viability assay, CellTiter-Glo (Example 21)
Type: cell-based, human
PROTOCOL CONDITIONS: 100 nM, 72 h treatment
Protocol: Effect of the selected compounds on cancer cell viability was measured via CellTiter-Glo® luminescent cell viability assay (Promega, Madison, WI, USA) according to the manufacturer's instructions. Cells were plated onto a flat-bottomed, white 96 well plate (BRANDplates®, cat. no.: 781965). […] After the treatment, the luminescence signal was recorded using a microplate reader (BioTek Synergy 2 Multi-Mode Reader, BioTek, Winooski, VT, USA). […]
OBSERVED PROPERTY: Detroit 562 (pharynx, carcinoma) cell viability (% of control)

# MOLECULE, TESTED TARGET, ASSAY VALUE
measured = [
    ("O=C1C2=C(CCN(Cc3ccccc3)C2)N2CCN=C2N1Cc1ccc(C(F)(F)F)cc1 [I/1, reference compound]", "Detroit 562 (pharynx, carcinoma) cells", "35.8 ± 14.4 % of control"),
    ("O=C1C2=C(CCN(Cc3cc(F)cc(F)c3)C2)N2CCN=C2N1Cc1ccc(C(F)(F)F)cc1", "Detroit 562 (pharynx, carcinoma) cells", "24.7 ± 2.9 % of control"),
    ("[N-]=[N+]=Nc1ccc(CN2C(=O)C3=C(CCN(Cc4cc(F)cc(F)c4)C3)N3CCN=C23)cc1", "Detroit 562 (pharynx, carcinoma) cells", "31.4 ± 2.9 % of control"),
    ("O=C1C2=C(CCN(Cc3cccc(F)c3)C2)N2CCN=C2N1Cc1ccc(C(F)(F)F)cc1 [I/3, reference compound]", "Detroit 562 (pharynx, carcinoma) cells", "28.9 ± 5.3 % of control"),
    ("O=C1C2=C(CCN(Cc3cccc(F)c3)C2)N2CCN=C2N1Cc1ccc(F)cc1 [I/6, reference compound]", "Detroit 562 (pharynx, carcinoma) cells", "31.6 ± 2.1 % of control"),
    ("O=C1C2=C(CCN(Cc3cc(F)cc(F)c3)C2)N2CCN=C2N1Cc1ccc(Cl)cc1", "Detroit 562 (pharynx, carcinoma) cells", "28.3 ± 3.6 % of control"),
    ("[N-]=[N+]=Nc1cccc(CN2CCC3=C(C2)C(=O)N(Cc2ccc(Cl)cc2)C2=NCCN23)c1", "Detroit 562 (pharynx, carcinoma) cells", "28.8 ± 3.6 % of control"),
    ("O=C1C2=C(CCN(Cc3cc(F)cc(F)c3)C2)N2CCN=C2N1Cc1ccc(F)cc1", "Detroit 562 (pharynx, carcinoma) cells", "28.6 ± 13.6 % of control"),
    ("[N-]=[N+]=Nc1cccc(CN2CCC3=C(C2)C(=O)N(Cc2ccc(C(F)(F)F)cc2)C2=NCCN23)c1", "Detroit 562 (pharynx, carcinoma) cells", "26.8 ± 2.8 % of control"),
]

----------
System: EBC-1 cell line
ASSAY INFO: Additional in vitro IC50 tests (Table 3)
Format: cell-based
PROTOCOL CONDITIONS: Homo sapiens
Field: label. Allowed values: Met (IC50 < 0.009 µM) or Not met (IC50 >= 0.009 µM).

# COMPOUND, CLASSIFICATION
measured = [
    ("O=C1C2=C(CCN(Cc3cc(F)cc(F)c3)C2)N2CCN=C2N1Cc1ccc(Cl)cc1 [I/124]", "Met"),
    ("O=C1C2=C(CCN(Cc3ccccc3)C2)N2CCN=C2N1Cc1ccc(C(F)(F)F)cc1 [I/1, reference compound]", "Not met"),
    ("Nc1cccc(CN2C(=O)C3=C(CCN(Cc4cc(F)cc(F)c4)C3)N3CCN=C23)c1 [I/126]", "Not met"),
    ("O=C1C2=C(CCN(Cc3cc(F)cc(F)c3)C2)N2CCN=C2N1[C@H](CO)c1ccc(F)cc1 [I/129 (S)]", "Not met"),
    ("[N-]=[N+]=Nc1cccc(CN2C(=O)C3=C(CCN(Cc4cc(F)cc(F)c4)C3)N3CCN=C23)c1 [I/127]", "Not met"),
    ("[N-]=[N+]=Nc1cccc(CN2CCC3=C(C2)C(=O)N(Cc2ccc(C(F)(F)F)cc2)C2=NCCN23)c1 [I/111]", "Met"),
    ("[N-]=[N+]=Nc1ccc(CN2C(=O)C3=C(CCN(Cc4cc(F)cc(F)c4)C3)N3CCN=C23)cc1 [I/107]", "Not met"),
    ("O=C1C2=C(CCN(Cc3cc(F)cc(F)c3)C2)N2CCN=C2N1Cc1ccc(Br)cc1 [I/39]", "Met"),
    ("NCc1cccc(CN2C(=O)C3=C(CCN(Cc4cc(F)cc(F)c4)C3)N3CCN=C23)c1 [I/61]", "Not met"),
    ("O=C1C2=C(CCN(Cc3cc(F)cc(F)c3)C2)N2CCN=C2N1Cc1ccc(C(F)(F)F)cc1 [I/30]", "Met"),
    ("O=C1C2=C(CCN(Cc3cc(F)cc(F)c3)C2)N2CCN=C2N1C(CO)c1ccc(Cl)cc1 (racemic) [I/128]", "Not met"),
]

----------
Known LNCaP cell viability of a selection of compounds
Tested on: LNCaP (prostate, carcinoma) cells
ASSAY INFO: Cell viability assay, CellTiter-Glo (Example 21)
Format: cell-based, human
PROTOCOL CONDITIONS: 3.7 nM, 72 h

# COMPOUND, LNCaP cell viability
rows = [
    ("O=C1C2=C(CCN(Cc3cc(F)cc(F)c3)C2)N2CCN=C2N1Cc1ccc(Cl)cc1 [I/124]", "20.8 ± 2.0 % of control"),
    ("O=C1C2=C(CCN(Cc3cccc(F)c3)C2)N2CCN=C2N1Cc1ccc(C(F)(F)F)cc1 [I/3, reference compound]", "98.7 ± 7.4 % of control"),
    ("O=C1C2=C(CCN(Cc3ccccc3)C2)N2CCN=C2N1Cc1ccc(C(F)(F)F)cc1 [I/1, reference compound]", "98.6 ± 5.7 % of control"),
    ("O=C1C2=C(CCN(Cc3cc(F)cc(F)c3)C2)N2CCN=C2N1Cc1ccc(F)cc1 [I/7]", "45.6 ± 7.0 % of control"),
    ("O=C1C2=C(CCN(Cc3cccc(F)c3)C2)N2CCN=C2N1Cc1ccc(F)cc1 [I/6, reference compound]", "101.8 ± 5.6 % of control"),
    ("[N-]=[N+]=Nc1ccc(CN2C(=O)C3=C(CCN(Cc4cc(F)cc(F)c4)C3)N3CCN=C23)cc1 [I/107]", "95.3 ± 2.3 % of control"),
    ("O=C1C2=C(CCN(Cc3cc(F)cc(F)c3)C2)N2CCN=C2N1Cc1ccc(C(F)(F)F)cc1 [I/30]", "29.6 ± 2.5 % of control"),
    ("[N-]=[N+]=Nc1cccc(CN2CCC3=C(C2)C(=O)N(Cc2ccc(Cl)cc2)C2=NCCN23)c1 [I/133]", "95.9 ± 6.1 % of control"),
    ("[N-]=[N+]=Nc1cccc(CN2CCC3=C(C2)C(=O)N(Cc2ccc(C(F)(F)F)cc2)C2=NCCN23)c1 [I/111]", "97.1 ± 2.6 % of control"),
]

----------
Test system: EBC-1 (lung, squamous cell carcinoma) cells
ASSAY INFO: Cell viability assay, CellTiter-Glo (Example 21)
Assay type: cell-based, human
PROTOCOL CONDITIONS: 11.1 nM, 72 h treatment
Known EBC-1 (lung, squamous cell carcinoma) cell viability (% of control) of a selection of compounds
OBSERVED PROPERTY: EBC-1 (lung, squamous cell carcinoma) cell viability (% of control)

# COMPOUND, ASSAY VALUE
data = [
    ("O=C1C2=C(CCN(Cc3cc(F)cc(F)c3)C2)N2CCN=C2N1Cc1ccc(Cl)cc1", "25.3 ± 0.7 % of control"),
    ("O=C1C2=C(CCN(Cc3cccc(F)c3)C2)N2CCN=C2N1Cc1ccc(F)cc1 [I/6, reference compound]", "101.7 ± 3.3 % of control"),
    ("[N-]=[N+]=Nc1cccc(CN2CCC3=C(C2)C(=O)N(Cc2ccc(Cl)cc2)C2=NCCN23)c1", "60.1 ± 6.7 % of control"),
    ("O=C1C2=C(CCN(Cc3cccc(F)c3)C2)N2CCN=C2N1Cc1ccc(C(F)(F)F)cc1 [I/3, reference compound]", "96.3 ± 1.4 % of control"),
    ("[N-]=[N+]=Nc1ccc(CN2C(=O)C3=C(CCN(Cc4cc(F)cc(F)c4)C3)N3CCN=C23)cc1", "70.3 ± 0.9 % of control"),
    ("[N-]=[N+]=Nc1cccc(CN2CCC3=C(C2)C(=O)N(Cc2ccc(C(F)(F)F)cc2)C2=NCCN23)c1", "54.0 ± 6.5 % of control"),
    ("O=C1C2=C(CCN(Cc3ccccc3)C2)N2CCN=C2N1Cc1ccc(C(F)(F)F)cc1 [I/1, reference compound]", "110.1 ± 11.9 % of control"),
    ("O=C1C2=C(CCN(Cc3cc(F)cc(F)c3)C2)N2CCN=C2N1Cc1ccc(F)cc1", "25.6 ± 0.1 % of control"),
    ("O=C1C2=C(CCN(Cc3cc(F)cc(F)c3)C2)N2CCN=C2N1Cc1ccc(C(F)(F)F)cc1", "24.8 ± 1.1 % of control"),
]
